- Test system: P388 mouse leukemia cells
- reported conditions: 92 h
Where a SMILES comes first, the peptide text is derived from it. [ ]: non-standard residue; d: D form. The star is where a group is joined. NHCH2CH2OH = OCCN*; For = O=C*
measurement kind: cell viability/% (%)
Report only the number, with the unit % understood.

- compound: "CNC(=O)C[C@@H](NC(=O)[C@H](Cc1c[nH]c2ccccc12)NC(=O)[C@H](NC(=O)[C@H](Cc1c[nH]c2ccccc12)NC(=O)[C@@H](CC(C)C)NC(=O)[C@H](Cc1c[nH]c2ccccc12)NC(=O)[C@@H](CC(C)C)NC(=O)[C@@H](NC(=O)[C@@H](CC(C)C)NC(=O)[C@H](C)NC(=O)[C@@H](CC(C)C)NC(=O)[C@H](C)NC(=O)CNC(=O)[C@@H](NC=O)C(C)C)C(C)C)C(C)C)C(=O)N[C@@H](Cc1c[nH]c2ccccc12)C(=O)NCCO [compound 2764] (For-VGA[dL]A[dL]V[dL]W[dL]W[dV]W[dD](NHMe)W-NHCH2CH2OH)"
  measurement kind: "cell viability/%"
  measure unit: "%"
  experimental value: 75.7

query: Provide cell viability/% value for the following compound: CNC(=O)C[C@@H](NC(=O)[C@@H](NC(=O)[C@H](NC(=O)[C@H](C)NC(=O)[C@H](NC(=O)[C@H](C)NC(=O)CNC(=O)[C@@H](NC=O)C(C)C)C(C)C)C(C)C)C(C)C)C(=O)N[C@@H](Cc1c[nH]c2ccccc12)C(=O)N[C@H](CC(C)C)C(=O)N[C@@H](Cc1c[nH]c2ccccc12)C(=O)N[C@H](CC(C)C)C(=O)N[C@@H](Cc1c[nH]c2ccccc12)C(=O)N[C@H](CC(C)C)C(=O)N[C@@H](Cc1c[nH]c2ccccc12)C(=O)NCCO [compound 8982] (For-VGA[dV]A[dV]V[dD](NHMe)W[dL]W[dL]W[dL]W-NHCH2CH2OH)
result: 49.1

query: Provide cell viability/% value for the following compound: CC(C)C[C@@H](NC(=O)[C@H](C)NC(=O)CNC(=O)[C@@H](NC=O)C(C)C)C(=O)N[C@@H](C)C(=O)N[C@H](CC(C)C)C(=O)N[C@H](C(=O)N[C@H](CC(C)C)C(=O)N[C@@H](Cc1c[nH]c2ccccc12)C(=O)N[C@H](CC(C)C)C(=O)N[C@@H](Cc1c[nH]c2ccccc12)C(=O)N[C@@H](C(=O)N[C@@H](Cc1c[nH]c2ccccc12)C(=O)N[C@H](CC(C)C)C(=O)N[C@@H](Cc1c[nH]c2ccccc12)C(=O)NCCO)C(C)C)C(C)C [compound 9473] (For-VGA[dL]A[dL]V[dL]W[dL]W[dV]W[dL]W-NHCH2CH2OH)
result: 0.0

query: Provide cell viability/% value for the following compound: CC(C)C[C@@H](NC(=O)[C@H](Cc1c[nH]c2ccccc12)NC(=O)[C@H](NC(=O)[C@H](Cc1c[nH]c2ccccc12)NC(=O)[C@H](NC(=O)[C@H](Cc1c[nH]c2ccccc12)NC(=O)[C@@H](CC(C)C)NC(=O)[C@@H](NC(=O)[C@H](NC(=O)[C@H](C)NC(=O)[C@H](NC(=O)[C@H](C)NC(=O)CNC(=O)[C@@H](NC=O)C(C)C)C(C)C)C(C)C)C(C)C)C(C)C)C(C)C)C(=O)N[C@@H](Cc1c[nH]c2ccccc12)C(=O)NCCO [compound 448] (For-VGA[dV]A[dV]V[dL]W[dV]W[dV]W[dL]W-NHCH2CH2OH)
result: 34.1
